# System: Vero E6
# Assay Protocol: cell viability relative to DMSO; higher = less toxic
# Reported Conditions: 72 h; 10 nM
Readout Name: cell viability (%)
Field: numeric (%). Do not append units.

Cc1ccc(S(=O)(=O)N2CCC[C@H]2c2ccc(F)cc2)cc1 [Ro-67-7476] ... 104
COC(=O)c1ccccc1O [methyl-salicylate] ... 104
COc1ncc(-c2ccc3c(Nc4cc(Oc5cc(F)cc(F)c5)cc(C(=O)O)c4)c(S(=O)(=O)NC4CC4)cnc3c2)c(OC)n1 ... 101
Cc1c(CN(C)C(=O)/C=C/c2cnc3c(c2)CCC(=O)N3)oc2ccccc12 [AFN-1252] ... 87.9
O=C(N[C@H]1CCN(C(=O)c2cc(C(F)(F)F)cc(C(F)(F)F)c2)[C@H](Cc2ccc(Cl)cc2)C1)c1ccnc2ccccc12 [AV-608] ... 100
OCCN1CCN(CCCN2c3ccccc3Sc3ccc(Cl)cc32)CC1 [perphenazine] ... 96.4
OCc1cccnc1 [nicotinyl-alcohol-tartrate] ... 101
NC[C@H]1O[C@H](O[C@H]2[C@H](O)[C@@H](O[C@H]3O[C@H](CO)[C@@H](O)[C@H](N)[C@H]3O)[C@H](N)C[C@@H]2N)[C@H](O)[C@@H](O)[C@@H]1O [kanamycin] ... 106
Fc1ccc2c(CCNCc3cccc(OCC(F)(F)C(F)F)c3)c[nH]c2c1 [idalopirdine] ... 95.2
CC(C)c1cc2c(cc1S(=O)(=O)O)[C@@]1(C)CCC[C@@](C)(C(=O)O)[C@@H]1CC2 [ecabet] ... 96.1

Would you kindly share the measured cell viability for OCC(CO)N[C@H]1C[C@](O)(CO)[C@@H](O)[C@H](O)[C@H]1O [voglibose] ?
95.1

----------
Quick list: cell viability per entry.
# System: Vero E6
# Assay Protocol: cell viability relative to DMSO; higher = less toxic
# Reported Conditions: 72 h; 100 nM
Give just the numeric value; % need not be written.

C=C(C)CN1CC[C@]23c4c5ccc(O)c4O[C@H]2c2[nH]c4ccccc4c2C[C@@]3(O)C1C5 [SDM25N] ... 95.6
O[C@H]1[C@H]2[C@H](O)CCCN2C[C@H]1O [swainsonine] ... 97.5
CC(=O)CC(c1ccccc1)c1c(O)c2ccccc2oc1=O (centres undefined) [warfarin] ... 105

Now look at this one.
I would be grateful if you could share the reported cell viability for CC(=O)OCC1=C(C(=O)O)N2C(=O)[C@@H](N)[C@H]2SC1 [7-aminocephalosporanic-acid] .
96.4

----------
# System: HepG2
# Assay Protocol: drug sensitivity score (DSS) for viability; higher = more toxic; extreme values may be limits of the assay
# Reported Conditions: 72 h
Measured drug sensitivity score, listed per entry.
The answer should be a number; do not append a unit.

COc1ccc2cc1Oc1ccc(cc1)C[C@H]1c3c(cc4c(c3Oc3cc5c(cc3OC)CCN(C)[C@@H]5C2)OCO4)CCN1C [cepharanthine] ... 0
C=C(C)CN1CC[C@]23c4c5ccc(O)c4O[C@H]2c2[nH]c4ccccc4c2C[C@@]3(O)C1C5 [SDM25N] ... 0.4
O=C(Nc1nc(-c2cc(Cl)cs2)c(N2CCN(C3CCCCC3)CC2)s1)c1cnc(N2CCC(C(=O)O)CC2)c(Cl)c1 [avatrombopag] ... 0
c1ccc2sc(N3CCN(Cc4ccc5c(c4)OCO5)CC3)nc2c1 [2-[1-(4-piperonyl)piperazinyl]benzothiazole] ... 0
CCn1c(-c2nonc2N)nc2c(C#CC(C)(C)O)ncc(OC[C@H]3CCCNC3)c21 ... 0
CCOc1ccccc1OC(c1ccccc1)C1CNCCO1 (stereo not drawn) [reboxetine] ... 0
Nc1ccc(C(=O)O)c(O)c1 [aminosalicylate] ... 0
COc1ccc(C(=O)c2c(C)n(CCN3CCOCC3)c3ccccc23)cc1 [pravadoline] ... 0

Report drug sensitivity score for O[C@@H](COc1cccc2ncccc12)CN1CCN([C@@H]2c3ccccc3[C@@H]3[C@H](c4ccccc42)C3(F)F)CC1 [zosuquidar] please.
3

Record: NC(=O)c1ccccc1O [salicylamide]
0
